- System name: yeast α-GLy (α-glucosidase, Sigma G0660) (Saccharomyces cerevisiae)
- Construct: purchased Sigma G0660
- Sequence (P53341 whole entry): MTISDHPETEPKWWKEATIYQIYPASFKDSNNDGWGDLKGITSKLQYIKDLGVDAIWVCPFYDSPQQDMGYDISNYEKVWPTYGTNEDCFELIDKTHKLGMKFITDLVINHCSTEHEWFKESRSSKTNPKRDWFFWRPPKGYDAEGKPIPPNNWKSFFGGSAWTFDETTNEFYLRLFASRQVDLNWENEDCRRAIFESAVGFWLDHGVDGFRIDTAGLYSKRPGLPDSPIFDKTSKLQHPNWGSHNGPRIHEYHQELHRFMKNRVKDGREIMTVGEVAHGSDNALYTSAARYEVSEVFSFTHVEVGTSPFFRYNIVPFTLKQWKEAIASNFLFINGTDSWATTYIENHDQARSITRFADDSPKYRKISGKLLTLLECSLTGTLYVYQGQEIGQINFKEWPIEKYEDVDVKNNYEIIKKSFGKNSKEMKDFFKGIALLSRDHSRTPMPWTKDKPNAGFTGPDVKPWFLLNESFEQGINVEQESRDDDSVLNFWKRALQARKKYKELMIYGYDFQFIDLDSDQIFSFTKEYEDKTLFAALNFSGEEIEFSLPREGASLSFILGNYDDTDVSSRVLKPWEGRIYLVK
- Protocol text: biochemical
- Assay type: biochemical
- Condition notes: IC50 ± SE, α-glucosidase inhibition, yeast α-glucosidase, 37°C, pH 6.8
# IC50 listing for each entry below

Here is how some molecules turned out for IC50.
COC(=O)C(CCSC)NC(=O)[C@]1(C)CCC[C@]2(C)[C@H]3C[C@H]4C(C(C)C)=C[C@]3(CC[C@H]21)[C@@H]1C(=O)CCC(=O)[C@@H]14 (stereo partly shown) :: > 255 µM
COC(=O)[C@]1(C)CCC[C@@]2(C)[C@H]1CC[C@]13C=C(C(C)C)[C@H](C[C@H]21)C1=C3C(=O)C=CC1=O :: > 255 µM
COC(=O)[C@]1(C)CCC[C@]2(C)[C@H]3C[C@H]4C(C(C)C)=C[C@]3(CC[C@H]21)[C@@H]1C(=O)CC[C@H](OC(=O)c2cccnc2)[C@@H]14 :: > 255 µM

Next item in the queue.
For the molecule COC(=O)[C@]1(C)CCC[C@]2(C)[C@H]3C[C@H]4C(C(C)C)=C[C@]3(CC[C@H]21)[C@@H]1C(=O)CC[C@H](OC(C)=O)[C@@H]14 , give its measured IC50 value. > 255 µM

Numbers sourced from paper PMC9655717.
